# studySystem: GLP-1R (Homo sapiens)
# Sequence (P43220 24-463): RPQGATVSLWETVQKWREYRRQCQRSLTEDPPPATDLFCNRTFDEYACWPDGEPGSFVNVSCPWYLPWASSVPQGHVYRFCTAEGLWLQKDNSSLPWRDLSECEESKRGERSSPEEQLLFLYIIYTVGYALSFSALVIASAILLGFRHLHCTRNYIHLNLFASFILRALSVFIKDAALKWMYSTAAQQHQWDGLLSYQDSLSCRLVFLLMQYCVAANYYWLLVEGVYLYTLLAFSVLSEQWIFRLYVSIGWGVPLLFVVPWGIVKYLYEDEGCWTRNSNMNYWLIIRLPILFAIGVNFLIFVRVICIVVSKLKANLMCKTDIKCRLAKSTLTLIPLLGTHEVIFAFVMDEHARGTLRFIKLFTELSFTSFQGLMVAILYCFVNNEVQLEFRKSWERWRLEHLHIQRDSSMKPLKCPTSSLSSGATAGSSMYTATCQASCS
# assayRemarks: GLP-1R Activation - cAMP Assay
# Format: cell-based
# studyConditions: cAMP increase in CHO cells stably expressing GLP-1R; each compound run on one of the two cAMP assays (Assay 1 or Assay 2, not specified)
// values below are reported EC50
Answer format: numeric, nM implied, no suffix.

[ask] Query: EC50; subject: COCCn1c(Cc2cc(F)c(-c3ccnc(OCc4cnc(-n5ccnn5)cc4Cl)n3)cc2F)nc2ccc(C(=O)O)cc21 [Example 389]
[reply] 0.55

[ask] Also CO[C@]1(C)COC[C@@H]1n1c(Cc2cc(F)c(-c3cccc(OCc4ccc(C#N)cc4F)n3)cc2F)nc2ccc(C(=O)O)cc21 (single isomer, unassigned) [Example 311B] , if possible.
[reply] 0.159

[ask] Also CC1(C)COC[C@H]1n1c(Cc2cc(F)c(-c3cccc(OCc4ccc(C#N)cc4F)n3)cc2Cl)nc2ccc(C(=O)O)cc21 [Example 257] , if possible.
[reply] 0.064

[ask] Also CC1(C)COC[C@H]1n1c(Cc2c(F)cc(-c3nc(OCc4ccc(C#N)cc4)c(F)cc3F)cc2F)nc2ccc(C(=O)O)cc21 [Example 151] , if possible.
[reply] 0.234

[ask] Also COc1cc(Cl)ncc1COc1cccc(-c2cc(F)c(Cc3nc4ccc(C(=O)O)cc4n3[C@@H]3COCC3(C)C)cc2F)n1 (single isomer, unassigned) [Example 290A] , if possible.
[reply] 0.063

[ask] Also O=C(O)c1ccc2nc(Cc3cc(F)c(-c4cccc(OCc5ccc(Cl)cc5F)n4)cc3F)n(C3COC4CC3C4)c2c1 (stereo in doubt) [Example 572] , if possible.
[reply] 0.322
